All figures here come from the supplement of paper PMC10307832.

Property: relative viability; scope: individual compounds
- Test system: LCLC-103H
- PROTOCOL NOTES: relative viability (nuclei count vs DMSO), 5 days (fraction); higher = more cells survive
- REPORTED CONDITIONS: first compound 0.03162 µM
Please state the value as a number alone, without comment.

Some solved cases for reference:
• Cc1cn(-c2cc(NC(=O)c3ccc(C)c(Nc4nccc(-c5cccnc5)n4)c3)cc(C(F)(F)F)c2)cn1 [Nilotinib] + CC(C)C[C@H](NC(=O)[C@H](Cc1ccccc1)NC(=O)c1cnccn1)B(O)O [Bortezomib] (partner 0.002 µM) = 1.15
• Cc1cn(-c2cc(NC(=O)c3ccc(C)c(Nc4nccc(-c5cccnc5)n4)c3)cc(C(F)(F)F)c2)cn1 [Nilotinib] + CCNC(=O)c1noc(-c2cc(C(C)C)c(O)cc2O)c1-c1ccc(CN2CCOCC2)cc1 [Luminespib] (partner 0.01 µM) = 0.927

Now consider a different compound.
# lookup: relative viability of Cc1cn(-c2cc(NC(=O)c3ccc(C)c(Nc4nccc(-c5cccnc5)n4)c3)cc(C(F)(F)F)c2)cn1 [Nilotinib] + CS(=O)(=O)N1CCN(Cc2cc3nc(-c4cccc5[nH]ncc45)nc(N4CCOCC4)c3s2)CC1 [Pictilisib] (partner 1 µM) 0.755

====

- Test system: NCI-H650
- PROTOCOL NOTES: relative viability (nuclei count vs DMSO), 5 days (fraction); higher = more cells survive
- REPORTED CONDITIONS: first compound 0.002 µM
Catalogue of relative viability values
Reply: number alone, nothing else.

# annotated cases, reported relative viability shown
- CCNC(=O)c1noc(-c2cc(C(C)C)c(O)cc2O)c1-c1ccc(CN2CCOCC2)cc1 [Luminespib] + O=C(CCCCCCC(=O)Nc1ccccc1)NO [Vorinostat] (partner 1 µM): 0.429
- CCNC(=O)c1noc(-c2cc(C(C)C)c(O)cc2O)c1-c1ccc(CN2CCOCC2)cc1 [Luminespib] + CC(C)C[C@H](NC(=O)[C@H](Cc1ccccc1)NC(=O)c1cnccn1)B(O)O [Bortezomib] (partner 0.002 µM): 0.737

Entry CCNC(=O)c1noc(-c2cc(C(C)C)c(O)cc2O)c1-c1ccc(CN2CCOCC2)cc1 [Luminespib] + NC(=O)Nc1cc(-c2cccc(F)c2)sc1C(=O)N[C@H]1CCCNC1 [AZD7762] (partner 0.2 µM) : reported relative viability = ? 0.93

Could you do the same for CCNC(=O)c1noc(-c2cc(C(C)C)c(O)cc2O)c1-c1ccc(CN2CCOCC2)cc1 [Luminespib] + Cc1nc(NC(=O)N2CCC[C@H]2C(N)=O)sc1-c1ccnc(C(C)(C)C(F)(F)F)c1 [Alpelisib] (partner 2 µM) , please? 1.24

====

- System: NCI-H2085
- PROTOCOL NOTES: relative viability (nuclei count vs DMSO), 5 days (fraction); higher = more cells survive
- REPORTED CONDITIONS: first compound 0.002 µM
MEASUREMENT TYPE: relative viability
// return a plain number; no unit text

These solved cases illustrate the format of a correct answer.
- CCNC(=O)c1noc(-c2cc(C(C)C)c(O)cc2O)c1-c1ccc(CN2CCOCC2)cc1 [Luminespib] + CC(=O)c1c(C)c2cnc(Nc3ccc(N4CCNCC4)cn3)nc2n(C2CCCC2)c1=O [Palbociclib] (partner 0.5 µM): 0.447
- CCNC(=O)c1noc(-c2cc(C(C)C)c(O)cc2O)c1-c1ccc(CN2CCOCC2)cc1 [Luminespib] + CS(=O)(=O)N1CCN(Cc2cc3nc(-c4cccc5[nH]ncc45)nc(N4CCOCC4)c3s2)CC1 [Pictilisib] (partner 1 µM): 0.448

Need relative viability of CCNC(=O)c1noc(-c2cc(C(C)C)c(O)cc2O)c1-c1ccc(CN2CCOCC2)cc1 [Luminespib] + C[C@]1(O)C[C@@H](c2nc(-c3ccc4ccc(-c5ccccc5)nc4c3)c3c(N)nccn32)C1 [Linsitinib] (partner 1 µM) , thanks. 0.405

Again, but for CCNC(=O)c1noc(-c2cc(C(C)C)c(O)cc2O)c1-c1ccc(CN2CCOCC2)cc1 [Luminespib] + Nc1nc2[nH]cc(CCc3ccc(C(=O)N[C@@H](CCC(=O)O)C(=O)O)cc3)c2c(=O)[nH]1 [Pemetrexed] (partner 0.2 µM) 0.908

For CCNC(=O)c1noc(-c2cc(C(C)C)c(O)cc2O)c1-c1ccc(CN2CCOCC2)cc1 [Luminespib] + COc1cc2c(Oc3ccc(NC(=O)C4(C(=O)Nc5ccc(F)cc5)CC4)cc3F)ccnc2cc1OCCCN1CCOCC1 [Foretinib] (partner 0.25 µM) then? 1.19

Continue with CCNC(=O)c1noc(-c2cc(C(C)C)c(O)cc2O)c1-c1ccc(CN2CCOCC2)cc1 [Luminespib] + CC(C)C[C@H](NC(=O)[C@H](Cc1ccccc1)NC(=O)c1cnccn1)B(O)O [Bortezomib] (partner 0.002 µM) 0.979

Further, for CCNC(=O)c1noc(-c2cc(C(C)C)c(O)cc2O)c1-c1ccc(CN2CCOCC2)cc1 [Luminespib] + Cc1nc(NC(=O)N2CCC[C@H]2C(N)=O)sc1-c1ccnc(C(C)(C)C(F)(F)F)c1 [Alpelisib] (partner 2 µM) ? 0.967

Then this compound: CCNC(=O)c1noc(-c2cc(C(C)C)c(O)cc2O)c1-c1ccc(CN2CCOCC2)cc1 [Luminespib] + N=C(N)NC(=N)NCCc1ccccc1 [Phenformin] (partner 250 µM) 0.807

====

- Test system: NCI-H2347
- PROTOCOL NOTES: relative viability (nuclei count vs DMSO), 5 days (fraction); higher = more cells survive
- REPORTED CONDITIONS: first compound 0.006325 µM
relative viability: recorded values
The response must contain the number and no unit.

* CCNC(=O)c1noc(-c2cc(C(C)C)c(O)cc2O)c1-c1ccc(CN2CCOCC2)cc1 [Luminespib] + O=C(CCCCCCC(=O)Nc1ccccc1)NO [Vorinostat] (partner 1 µM) | 0.413

Record request: relative viability value, item CCNC(=O)c1noc(-c2cc(C(C)C)c(O)cc2O)c1-c1ccc(CN2CCOCC2)cc1 [Luminespib] + NC(=O)Nc1cc(-c2cccc(F)c2)sc1C(=O)N[C@H]1CCCNC1 [AZD7762] (partner 0.2 µM) 0.719

Note, next up: CCNC(=O)c1noc(-c2cc(C(C)C)c(O)cc2O)c1-c1ccc(CN2CCOCC2)cc1 [Luminespib] + Cc1cc(Nc2cc(N3CCN(C)CC3)nc(Sc3ccc(NC(=O)C4CC4)cc3)n2)n[nH]1 [Tozasertib] (partner 0.1 µM) 0.407

And CCNC(=O)c1noc(-c2cc(C(C)C)c(O)cc2O)c1-c1ccc(CN2CCOCC2)cc1 [Luminespib] + Nc1ncn([C@H]2C[C@H](O)[C@@H](CO)O2)c(=O)n1 [Decitabine] (partner 2 µM) ? 0.567

Repeat with CCNC(=O)c1noc(-c2cc(C(C)C)c(O)cc2O)c1-c1ccc(CN2CCOCC2)cc1 [Luminespib] + COc1cc2c(Oc3ccc(NC(=O)C4(C(=O)Nc5ccc(F)cc5)CC4)cc3F)ccnc2cc1OCCCN1CCOCC1 [Foretinib] (partner 0.25 µM) 0.64

Now the same for CCNC(=O)c1noc(-c2cc(C(C)C)c(O)cc2O)c1-c1ccc(CN2CCOCC2)cc1 [Luminespib] + Nc1nc2[nH]cc(CCc3ccc(C(=O)N[C@@H](CCC(=O)O)C(=O)O)cc3)c2c(=O)[nH]1 [Pemetrexed] (partner 0.2 µM) 0.404

====

List of relative viability values.
- Test system: NCI-H1792
- PROTOCOL NOTES: relative viability (nuclei count vs DMSO), 5 days (fraction); higher = more cells survive
- REPORTED CONDITIONS: first compound 2 µM
Write no unit; give the number alone.

Example entries begin here.
• Cc1csc(=NC2CCCCC2)n1/N=C/c1ccc(O)c(O)c1O [MIM1] + N=C(N)NC(=N)NCCc1ccccc1 [Phenformin] (partner 250 µM) = 0.322
• CN1CCN(CCOc2cc(OC3CCOCC3)c3c(Nc4c(Cl)ccc5c4OCO5)ncnc3c2)CC1 [Saracatinib] + CC1(C)CCC(c2ccc(Cl)cc2)=C(CN2CCN(c3ccc(C(=O)NS(=O)(=O)c4ccc(N[C@H](CCN5CCOCC5)CSc5ccccc5)c(S(=O)(=O)C(F)(F)F)c4)cc3)CC2)C1 [Navitoclax] (partner 0.5 µM) = 0.583
• CN1CCN(CCOc2cc(OC3CCOCC3)c3c(Nc4c(Cl)ccc5c4OCO5)ncnc3c2)CC1 [Saracatinib] + C[C@@H](Oc1cc(-c2cnn(C3CCNCC3)c2)cnc1N)c1c(Cl)ccc(F)c1Cl [Crizotinib] (partner 1 µM) = 0.684
• Cc1csc(=NC2CCCCC2)n1/N=C/c1ccc(O)c(O)c1O [MIM1] + CC(C)C[C@H](NC(=O)[C@H](Cc1ccccc1)NC(=O)c1cnccn1)B(O)O [Bortezomib] (partner 0.002 µM) = 0.922

What is its relative viability for NCI-H1792? Entry: CN1CCN(CCOc2cc(OC3CCOCC3)c3c(Nc4c(Cl)ccc5c4OCO5)ncnc3c2)CC1 [Saracatinib] + CCNC(=O)c1noc(-c2cc(C(C)C)c(O)cc2O)c1-c1ccc(CN2CCOCC2)cc1 [Luminespib] (partner 0.01 µM) 0.358
